# assay-comment: folding enthalpy; higher = less favourable; fluorescence melt of hairpins on a sequencing array, two-state fit
# test-context: sodium 0.088 M
# if value of folding enthalpy reaches -20 kcal/mol, tag Y; if it stays below, tag N

sequence-record	cat
GGGTCCGAAAGGAGCCC ((((((....))).)))	Y
GGTGGCGAAAGCCGACC ((((((....))).)))	Y
GACCGCGAAAGCGGCGTC ((((((....)))..)))	Y
GTCGCAGGAAACTACGAC ((((.((....)).))))	N

* * *

# assay-comment: folding enthalpy; higher = less favourable; fluorescence melt of hairpins on a sequencing array, two-state fit
# test-context: sodium 0.088 M
# if value of folding enthalpy reaches -20 kcal/mol, tag y; if it stays below, tag n

sequence-record	cat
CGGCTGCGGAAACGCCCG (((..(((....))))))	y
GTGAACGGAAACATTCAC (((((.(....).)))))	n
GATCCTCGGGAGGATC ((((((....))))))	n
GTATCCCCGAAAGGGTAC (((..(((....))))))	y
GAGCGCGGAAACACGCCC (.(((.(....).))).)	y
GCTGCGCGAAAGCGTGGC ((..(((....)))..))	n
GATCTGGCTTCAGATC ((((((....))))))	n
GATCACGTTTGTGATC ((((((....))))))	n
GGAACCGGAAACGATTCC ((((.((....)).))))	n
GTCGGTGCGAAAGCAGAC (((..(((....))))))	y
GTACCTGGAAACGGGTAC (((((.(....).)))))	n
GGAAGCGAAAGCTATTCC ((((((....)))..)))	y
GTCTGGGGAAACTCAGAC (((((.(....).)))))	n
CGGACGGAAACGTCCCG ((((((....))).)))	y
GCGTTGTAACGC ((((....))))	n
GATCAAATGGTTGATC ((((((....))))))	n
GATGCTGGAAACGGCATC (((((.(....).)))))	n
GAGAGGGCGAAAGCCCTC (((..(((....))))))	y
GCAGCGCGAAAGCCCGGC ((.(.((....)).).))	y
GCGGTCTTCCGC ((((....))))	n
GGTCAGACGAAAGTCACC (((..(((....))))))	y
GACAGGGAAACCTGTC ((((((....))))))	n
GCCGGTGGAAACACTGGC (((.(((....))).)))	n
GCTCCACGAAAGTGTAGC (((.(((....))).)))	n
GTTGGAGGAAACTTCGAC ((.(.((....)).).))	n
GCCAGGCGAAAGCAGGGC (((..((....))..)))	n
GATCGTGATGACGATC ((((((....))))))	n
GATCGGGGAGCCGATC ((((((....))))))	n
GGCGACGAAAGTCTGGCC ((((((....)))..)))	n
GCGCCAGGAAACCGACGC (((.(.(....).).)))	n
GCGTAGCGAAAGCCATGC ((.(.((....)).).))	y
GAACGGGGAAACCCGCTC ((.((((....)))).))	y
GATCGGATCCCGATC ((((((...))))))	n
GTCCGTCCGAAAGGAGAC (((..(((....))))))	y
GTATGGGGAAACTCATAC (((((.(....).)))))	n
GACCGCCGAAAGGCGTC (((.(((....))))))	y
GAACGCGAAAGCGATTC ((((((....))).)))	y
GACATACGAAAGTAAGTC (((.(((....))).)))	n
GTACCCGAAAGGGTATAC ((((((....)))..)))	y
GCCATGGAAACATGGC ((((((....))))))	n
GGGGAGGGAAACCTCTCC ((.((((....)))).))	n
GTTTCCGAAAGGACAAAC ((((((....)))..)))	y
GTCTCCGAAAGGAAGGAC ((((((....)))..)))	y
GATCTGTGGACAGATC ((((((....))))))	n
